ASSAY_TARGET: DGAT1 in C2C12 cells (Mus musculus)
Construct: endogenous in cells; host or cells: C2C12 mouse skeletal muscle cells
Sequence (Q9Z2A7 whole entry): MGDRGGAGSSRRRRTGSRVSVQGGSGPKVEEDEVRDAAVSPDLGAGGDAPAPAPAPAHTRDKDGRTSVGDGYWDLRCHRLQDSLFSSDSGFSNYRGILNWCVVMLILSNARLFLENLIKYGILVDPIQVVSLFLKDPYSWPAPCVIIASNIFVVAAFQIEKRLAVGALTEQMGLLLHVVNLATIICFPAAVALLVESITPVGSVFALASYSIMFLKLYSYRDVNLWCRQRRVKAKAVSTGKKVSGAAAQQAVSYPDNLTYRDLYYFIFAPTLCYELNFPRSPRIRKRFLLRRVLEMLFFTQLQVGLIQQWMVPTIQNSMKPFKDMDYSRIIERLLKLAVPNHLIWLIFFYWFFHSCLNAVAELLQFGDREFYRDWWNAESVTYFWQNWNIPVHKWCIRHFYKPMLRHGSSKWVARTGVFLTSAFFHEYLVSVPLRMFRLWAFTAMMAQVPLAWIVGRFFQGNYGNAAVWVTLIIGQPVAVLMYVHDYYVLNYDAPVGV
EXPERIMENTAL_PROTOCOL: Cellular assay to measure activity of DGAT1 inhibitors in mammalian cells (C2C12)
Type: cell-based
RUN_PARAMETERS: C2C12 mouse skeletal muscle cells, 250 μM oleate, 2 h, LC/MS readout
Experimental: C2C12 cells are an immortal mouse skeletal muscle cell line showing an 8-fold enrichment form DGAT1 versus DGAT2. C2C12 cells were routinely cultured in 150 cm2 flasks with DMEM (25 mM glucose) containing 10% FBS, 4 m M L-glutamine, 100 U/ml penicillin and 100 μg/ml streptomycin (30 ml per flask), at 37° C., 5% CO2 and 95% humidity. All studies were performed on cells at passage 10 or less. […]
pIC50: −log10 of the molar value.
ASSAY_METRIC: pIC50

| COMPOUND | ASSAY_METRIC | OBSERVED |
| --- | --- | --- |
| CC(C)(C)c1cnc(Nc2ccc(-c3ccc(C45CCC(CC(=O)O)(CC4)OC5)cc3)cc2)o1 [Example 15] | pIC50 | 8.15 |
| Cc1nc(C(=O)Nc2ccc(-c3ccc(C45CCC(CC(=O)O)(CC4)OC5)cc3)cc2)c(C(F)(F)F)o1 [Example 10] | pIC50 | 7.25 |
| CC(C)Cc1nnc(Nc2ccc(-c3ccc(C45CCC(CC(=O)O)(CC4)OC5)cc3)cc2)o1 [Example 16] | pIC50 | 7.42 |
| O=C(O)CC12CCC(c3ccc(-c4ccc(Nc5nnc(C6CCC6)s5)cc4)cc3)(CC1)CO2 [Example 6] | pIC50 | 8.70 |
| CC(C)(C)c1nnc(Nc2ccc(-c3ccc(C45CCC(CC(=O)O)(CC4)OC5)cc3)cc2)o1 [Example 8] | pIC50 | 8.05 |
| CC(C)(C)c1nnc(Nc2ccc(-c3ccc(C45CCC(CC(=O)O)(CC4)OC5)cc3)nc2)o1 [Example 1] | pIC50 | 6.54 |
| O=C(O)CC12CCC(c3ccc(-c4cnc(Nc5nnc(C6CCC6)s5)nc4)cc3)(CC1)CO2 [Example 4] | pIC50 | 5.60 |
| O=C(O)CC12CCC(c3ccc(-c4ccc(Nc5nnc(C6CCC6)o5)cn4)cc3)(CC1)OC2 [Example 21] | pIC50 | 6.03 |
| CC(C)(C)c1cnc(Nc2ccc(-c3ccc(C45CCC(CC(=O)O)(CC4)OC5)cc3)nc2)o1 [Example 14] | pIC50 | 6.97 |
| O=C(O)CC12CCC(c3ccc(-c4ccc(Nc5nnc(C6CCC6)s5)cn4)cc3)(CC1)CO2 [Example 3] | pIC50 | 7.82 |

[P] CC(C)(C)c1nnc(Nc2ccc(-c3ccc(C45CCC(CC(=O)O)(CC4)O5)cc3)cc2)o1 [Example 22]
[Q] CCc1nc(C)c(C(=O)Nc2ccc(-c3ccc(C45CCC(CC(=O)O)(CC4)CO5)cc3)cc2)o1 [Example 18]
[R] O=C(O)CC12CCC(c3ccc(-c4ccc(Nc5nnc(C6CCC6)o5)cc4)cc3)(CC1)OC2 [Example 19]
[S] CC(C)(C)Cc1nnc(Nc2ccc(-c3ccc(C45CCC(CC(=O)O)(CC4)OC5)cc3)cc2)o1 [Example 17]
[T] O=C(O)CC12CCC(c3ccc(-c4ccc(Nc5nnc(C6CCC6)s5)nc4)cc3)(CC1)CO2 [Example 5]
Order the items by recorded pIC50; the first position goes to the largest value. Please, when replying, give the labels in the order that was requested.
R, S, Q, P, T

[P] CC(C)(C)c1nnc(Nc2ccc(-c3ccc(C45CCC(CCC(=O)O)(CC4)O5)cc3)cc2)o1 [Example 23]
[Q] CC(C)(C)c1nnc(Nc2ccc(-c3ccc(C45CCC(CC(=O)O)(CC4)CO5)cc3)cc2)o1 [Example 20]
Please indicate which entry, P or Q , has the lower recorded pIC50 value. Identify your pick by its label.
P
